# tested-system: wild-type Androgen Receptor (AR-wt) (Homo sapiens (Human), UniProt P10275)
# Sequence (P10275 whole entry): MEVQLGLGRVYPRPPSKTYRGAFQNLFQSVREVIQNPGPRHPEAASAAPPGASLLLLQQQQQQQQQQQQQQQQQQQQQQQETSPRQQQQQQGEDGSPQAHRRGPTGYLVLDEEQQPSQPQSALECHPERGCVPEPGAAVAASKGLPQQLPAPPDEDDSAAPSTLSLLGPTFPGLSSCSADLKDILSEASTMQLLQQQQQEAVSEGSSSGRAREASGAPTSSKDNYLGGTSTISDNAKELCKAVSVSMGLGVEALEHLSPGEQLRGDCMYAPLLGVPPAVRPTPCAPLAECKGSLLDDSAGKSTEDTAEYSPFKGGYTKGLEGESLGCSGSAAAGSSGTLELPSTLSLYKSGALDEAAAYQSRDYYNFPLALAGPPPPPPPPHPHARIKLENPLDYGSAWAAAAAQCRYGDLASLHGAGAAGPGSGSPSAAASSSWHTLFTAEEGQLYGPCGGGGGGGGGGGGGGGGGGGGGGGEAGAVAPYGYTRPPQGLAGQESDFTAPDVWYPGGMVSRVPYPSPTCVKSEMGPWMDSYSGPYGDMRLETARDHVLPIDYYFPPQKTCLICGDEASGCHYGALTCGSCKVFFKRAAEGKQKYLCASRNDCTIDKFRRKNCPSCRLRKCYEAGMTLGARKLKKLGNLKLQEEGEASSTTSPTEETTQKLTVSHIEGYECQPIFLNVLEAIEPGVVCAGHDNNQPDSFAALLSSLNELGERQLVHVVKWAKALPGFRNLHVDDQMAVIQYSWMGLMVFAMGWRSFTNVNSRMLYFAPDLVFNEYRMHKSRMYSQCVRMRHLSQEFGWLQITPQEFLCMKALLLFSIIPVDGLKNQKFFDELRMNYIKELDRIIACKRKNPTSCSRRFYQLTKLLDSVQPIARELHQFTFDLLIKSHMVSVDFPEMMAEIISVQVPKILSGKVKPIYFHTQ
# protocol: LNCaP-AR-wt ANT reporter assay (antagonist mode)
# Format: cell-based
# conditions-used: antagonist mode; pIC50 = −Log10(IC50 in Molar); read-out: LNCaP-AR-wt ANT pIC50 (converted)
Listed below: IC50 values for each entry.
Report only the number, with the unit nM understood.

Worked cases, IC50 given:
Cn1cc(N2C(=S)N(c3cnc(C#N)c(C(F)(F)F)c3)C(=O)C23CCC3)ccc1=O [Cpd 133] : 1580
Cc1cc(N2C(=O)C3(CCC3)N(c3ccc(CC4CCN(C)CC4)cc3)C2=S)cnc1C#N [Cpd 238] : 1410

// map N#CCN1CCC(Oc2ccc(N3C(=S)N(c4cnc(C#N)c(C(F)(F)F)c4)C(=O)C34CCC4)cn2)CC1 [Cpd 60] to recorded IC50 (system: wild-type Androgen Receptor (AR-wt) (Homo sapiens (Human), UniProt P10275))
22.9

Try N#Cc1ncc(N2C(=O)C3(CCC3)N(c3ccc(O[C@@H]4CCN[C@H](C(F)(F)F)C4)cc3)C2=S)cc1C(F)(F)F (racemic) [Cpd 101] next.
155
